- Measurement Notes: Displacement of Biocillin FL from Streptococcus pneumoniae 1076 PBP2A
Assay Endpoint: IC50 (µg/mL)
Kindly answer with a numeric value in µg/mL, unit omitted.

Qu. Looking for the measured IC50 of `C[C@@H](O)[C@H]1C(=O)N2C(C(=O)O)=C([C@H]3CCCO3)S[C@H]12` , can you help?
Ans. 0.035

Qu. Looking for the measured IC50 of `CC1(C)S[C@@H]2[C@H](NC(=O)[C@H](N)c3ccc(O)cc3)C(=O)N2[C@H]1C(=O)O` , can you help?
Ans. 0.08

Qu. Looking for the measured IC50 of `CC1(C)S[C@@H]2[C@H](NC(=O)Cc3ccccc3)C(=O)N2[C@H]1C(=O)O` , can you help?
Ans. 0.02

Qu. Looking for the measured IC50 of `CO/N=C(\C(=O)N[C@@H]1C(=O)N2C(C(=O)O)=C(COC(N)=O)CS[C@H]12)c1ccco1` , can you help?
Ans. 0.004

Qu. Looking for the measured IC50 of C[C@@H](O)[C@H]1C(=O)N2C(C(=O)O)=C(SCCNC=N)C[C@H]12 [IMIPENEM ANHYDROUS] , can you help?
Ans. 0.054

====

- Measurement Notes: Displacement of Biocillin FL from Streptococcus pneumoniae 3676 PBP2A
Assay Endpoint: IC50 (µg/mL)
Kindly answer with a numeric value in µg/mL, unit omitted.

Qu. Looking for the measured IC50 of CO/N=C(\C(=O)N[C@@H]1C(=O)N2C(C(=O)O)=C(COC(N)=O)CS[C@H]12)c1ccco1 [CEFUROXIME] , can you help?
Ans. 0.011

Qu. Looking for the measured IC50 of C[C@@H](O)[C@H]1C(=O)N2C(C(=O)O)=C([C@H]3CCCO3)S[C@H]12 [FAROPENEM] , can you help?
Ans. 0.053

Qu. Looking for the measured IC50 of C[C@@H](O)[C@H]1C(=O)N2C(C(=O)O)=C(SCCNC=N)C[C@H]12 [IMIPENEM ANHYDROUS] , can you help?
Ans. 0.115

Qu. Looking for the measured IC50 of CC1(C)S[C@@H]2[C@H](NC(=O)Cc3ccccc3)C(=O)N2[C@H]1C(=O)O [PENICILLIN G] , can you help?
Ans. 0.013

Qu. Looking for the measured IC50 of CC1(C)S[C@@H]2[C@H](NC(=O)[C@H](N)c3ccc(O)cc3)C(=O)N2[C@H]1C(=O)O [AMOXICILLIN] , can you help?
Ans. 0.066

====

Provide the recorded IC50 for the entries that follow.
- Measurement Notes: Displacement of Biocillin FL from Streptococcus pneumoniae 3665 PBP1B
Kindly answer with a numeric value in µg/mL, unit omitted.

Qu. Looking for the measured IC50 of CC1(C)S[C@@H]2[C@H](NC(=O)Cc3ccccc3)C(=O)N2[C@H]1C(=O)O [PENICILLIN G] , can you help?
Ans. 0.029

Qu. Looking for the measured IC50 of C[C@@H](O)[C@H]1C(=O)N2C(C(=O)O)=C([C@H]3CCCO3)S[C@H]12 [FAROPENEM] , can you help?
Ans. 0.012

Qu. Looking for the measured IC50 of CO/N=C(\C(=O)N[C@@H]1C(=O)N2C(C(=O)O)=C(COC(N)=O)CS[C@H]12)c1ccco1 [CEFUROXIME] , can you help?
Ans. 0.016

Qu. Looking for the measured IC50 of C[C@@H](O)[C@H]1C(=O)N2C(C(=O)O)=C(SCCNC=N)C[C@H]12 [IMIPENEM ANHYDROUS] , can you help?
Ans. 0.077

Qu. Looking for the measured IC50 of CC1(C)S[C@@H]2[C@H](NC(=O)[C@H](N)c3ccc(O)cc3)C(=O)N2[C@H]1C(=O)O [AMOXICILLIN] , can you help?
Ans. 0.079

====

Provide the recorded IC50 for the entries that follow.
- Measurement Notes: Displacement of Biocillin FL from Streptococcus pneumoniae 3665 PBP2A
Kindly answer with a numeric value in µg/mL, unit omitted.

Qu. Looking for the measured IC50 of CC1(C)S[C@@H]2[C@H](NC(=O)[C@H](N)c3ccc(O)cc3)C(=O)N2[C@H]1C(=O)O [AMOXICILLIN] , can you help?
Ans. 0.05

Qu. Looking for the measured IC50 of CO/N=C(\C(=O)N[C@@H]1C(=O)N2C(C(=O)O)=C(COC(N)=O)CS[C@H]12)c1ccco1 [CEFUROXIME] , can you help?
Ans. 0.009

Qu. Looking for the measured IC50 of C[C@@H](O)[C@H]1C(=O)N2C(C(=O)O)=C([C@H]3CCCO3)S[C@H]12 [FAROPENEM] , can you help?
Ans. 0.015

Qu. Looking for the measured IC50 of CC1(C)S[C@@H]2[C@H](NC(=O)Cc3ccccc3)C(=O)N2[C@H]1C(=O)O [PENICILLIN G] , can you help?
Ans. 0.016

Qu. Looking for the measured IC50 of C[C@@H](O)[C@H]1C(=O)N2C(C(=O)O)=C(SCCNC=N)C[C@H]12 [IMIPENEM ANHYDROUS] , can you help?
Ans. 0.233

====

- Assayed System: Penicillin-binding protein 1A (Streptococcus pneumoniae serotype 4 (strain ATCC BAA-334 / TIGR4), UniProt Q04707)
- Sequence (Q04707 whole entry): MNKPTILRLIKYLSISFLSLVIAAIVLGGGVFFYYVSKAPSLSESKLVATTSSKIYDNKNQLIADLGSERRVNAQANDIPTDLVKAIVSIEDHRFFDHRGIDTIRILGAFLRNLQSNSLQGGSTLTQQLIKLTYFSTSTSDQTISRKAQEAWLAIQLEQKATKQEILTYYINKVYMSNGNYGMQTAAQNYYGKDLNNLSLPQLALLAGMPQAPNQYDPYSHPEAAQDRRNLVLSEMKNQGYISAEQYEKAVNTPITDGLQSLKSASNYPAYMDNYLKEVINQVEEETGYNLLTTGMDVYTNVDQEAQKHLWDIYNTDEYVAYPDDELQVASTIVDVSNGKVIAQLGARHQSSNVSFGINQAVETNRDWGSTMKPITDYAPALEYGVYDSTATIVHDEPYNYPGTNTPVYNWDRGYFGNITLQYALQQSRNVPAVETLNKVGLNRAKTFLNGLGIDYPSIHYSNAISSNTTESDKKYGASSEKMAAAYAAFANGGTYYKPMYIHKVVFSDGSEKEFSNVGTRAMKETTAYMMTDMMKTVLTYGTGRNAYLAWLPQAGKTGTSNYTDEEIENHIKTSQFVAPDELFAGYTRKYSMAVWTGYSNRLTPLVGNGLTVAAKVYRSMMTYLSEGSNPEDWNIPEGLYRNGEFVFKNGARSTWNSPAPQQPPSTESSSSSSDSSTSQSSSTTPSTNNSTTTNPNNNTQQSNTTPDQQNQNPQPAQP
- Measurement Notes: Displacement of Biocillin FL from Streptococcus pneumoniae 3665 PBP1A
Assay Endpoint: pIC50
// pIC50 here means minus log10 of the molar concentration (mol/L)

Qu. Looking for the measured pIC50 of `CO/N=C(\C(=O)N[C@@H]1C(=O)N2C(C(=O)O)=C(COC(N)=O)CS[C@H]12)c1ccco1` , can you help?
Ans. 8.33

Qu. Looking for the measured pIC50 of `C[C@@H](O)[C@H]1C(=O)N2C(C(=O)O)=C([C@H]3CCCO3)S[C@H]12` , can you help?
Ans. 6.98

Qu. Looking for the measured pIC50 of `CC1(C)S[C@@H]2[C@H](NC(=O)[C@H](N)c3ccc(O)cc3)C(=O)N2[C@H]1C(=O)O` , can you help?
Ans. 6.74

Qu. Looking for the measured pIC50 of `CC1(C)S[C@@H]2[C@H](NC(=O)Cc3ccccc3)C(=O)N2[C@H]1C(=O)O` , can you help?
Ans. 7.03

Qu. Looking for the measured pIC50 of C[C@@H](O)[C@H]1C(=O)N2C(C(=O)O)=C(SCCNC=N)C[C@H]12 [IMIPENEM ANHYDROUS] , can you help?
Ans. 6.02

====

- Measurement Notes: Displacement of Biocillin FL from Streptococcus pneumoniae 3243 PBP3
Provide the recorded log10 IC50 for the entries that follow.
On a log10 scale: recorded IC50, unit ng/mL.

Qu. Looking for the measured log10 IC50 of `CO/N=C(\C(=O)N[C@@H]1C(=O)N2C(C(=O)O)=C(COC(N)=O)CS[C@H]12)c1ccco1` , can you help?
Ans. 1.36

Qu. Looking for the measured log10 IC50 of `C[C@@H](O)[C@H]1C(=O)N2C(C(=O)O)=C([C@H]3CCCO3)S[C@H]12` , can you help?
Ans. 0.60

Qu. Looking for the measured log10 IC50 of `CC1(C)S[C@@H]2[C@H](NC(=O)Cc3ccccc3)C(=O)N2[C@H]1C(=O)O` , can you help?
Ans. 0.85

Qu. Looking for the measured log10 IC50 of `CC1(C)S[C@@H]2[C@H](NC(=O)[C@H](N)c3ccc(O)cc3)C(=O)N2[C@H]1C(=O)O` , can you help?
Ans. 0.78

Qu. Looking for the measured log10 IC50 of C[C@@H](O)[C@H]1C(=O)N2C(C(=O)O)=C(SCCNC=N)C[C@H]12 [IMIPENEM ANHYDROUS] , can you help?
Ans. 1.98

====

- Measurement Notes: Displacement of Biocillin FL from Streptococcus pneumoniae 1076 PBP1B
The threshold is 30 ng/mL. Values of IC50 beneath it are tagged class 1; values meeting or exceeding it are tagged class 0.

Qu. In the record for `CC1(C)S[C@@H]2[C@H](NC(=O)[C@H](N)c3ccc(O)cc3)C(=O)N2[C@H]1C(=O)O` , is IC50 less than 30 ng/mL?
Ans. class 0

Qu. In the record for `C[C@@H](O)[C@H]1C(=O)N2C(C(=O)O)=C([C@H]3CCCO3)S[C@H]12` , is IC50 less than 30 ng/mL?
Ans. class 1

Qu. In the record for `CO/N=C(\C(=O)N[C@@H]1C(=O)N2C(C(=O)O)=C(COC(N)=O)CS[C@H]12)c1ccco1` , is IC50 less than 30 ng/mL?
Ans. class 1

Qu. In the record for C[C@@H](O)[C@H]1C(=O)N2C(C(=O)O)=C(SCCNC=N)C[C@H]12 [IMIPENEM ANHYDROUS] , is IC50 less than 30 ng/mL?
Ans. class 0

Qu. In the record for `CC1(C)S[C@@H]2[C@H](NC(=O)Cc3ccccc3)C(=O)N2[C@H]1C(=O)O` , is IC50 less than 30 ng/mL?
Ans. class 1
